- test_protocol: in vitro
- experimental_conditions: African green monkey
Measured CC50 accompanies every entry in the list below.

* CCCCCCCC(=O)NCC(=O)NC(CCC(=O)NC(Cc1c(Sc2ccc([N+](=O)[O-])cc2)[nH]c2ccccc12)C(=O)O)(CCC(=O)NC(Cc1c(Sc2ccc([N+](=O)[O-])cc2)[nH]c2ccccc12)C(=O)O)CCC(=O)NC(Cc1c(Sc2ccc([N+](=O)[O-])cc2)[nH]c2ccccc12)C(=O)O (centres unmarked) [Compound 57] | > 100 µM

For the next question, use this compound.
May I ask what CC50 has been recorded for CCCCCCCCCC(=O)NCC(=O)NC(CCC(=O)NC(Cc1c(Sc2ccc([N+](=O)[O-])cc2)[nH]c2ccccc12)C(=O)O)(CCC(=O)NC(Cc1c(Sc2ccc([N+](=O)[O-])cc2)[nH]c2ccccc12)C(=O)O)CCC(=O)NC(Cc1c(Sc2ccc([N+](=O)[O-])cc2)[nH]c2ccccc12)C(=O)O (centres unmarked) [Compound 58] ? > 100 µM

---

- test_protocol: in vitro
- experimental_conditions: human
recorded_metric: CC50

* CCCCCCCC(=O)NCC(=O)NC(CCC(=O)NC(Cc1c(Sc2ccc([N+](=O)[O-])cc2)[nH]c2ccccc12)C(=O)O)(CCC(=O)NC(Cc1c(Sc2ccc([N+](=O)[O-])cc2)[nH]c2ccccc12)C(=O)O)CCC(=O)NC(Cc1c(Sc2ccc([N+](=O)[O-])cc2)[nH]c2ccccc12)C(=O)O (centres unmarked) | > 100 µM

For the next question, use this compound.
May I ask what CC50 has been recorded for N#Cc1ccc(Sc2[nH]c3ccccc3c2CC(NC(=O)CCC(CCC(=O)NC(Cc2c(Sc3ccc(C#N)cc3)[nH]c3ccccc23)C(=O)O)(CCC(=O)NC(Cc2c(Sc3ccc(C#N)cc3)[nH]c3ccccc23)C(=O)O)NC(=O)CN)C(=O)O)cc1 (centres unmarked) ? > 100 µM

---

- System: VSV-S (pseudotyped VSV carrying the S protein of Wuhan-Hu-1 SARS-CoV-2)
- test_protocol: microbe, parasite or virus in culture
- Type: cell-based
- experimental_conditions: Vesicular stomatitis virus, read-out: IC50 (concentration at which virus infection is reduced by 50%), VSV-S in A549-ACE2-TMPRSS2 cells
pIC50: −log10 of the molar value.
Respond with 1 for pIC50 values of 5 and above, -1 for values below.

The examples below pair each entry with its known result.
• O=C(CCOCC(COCCC(=O)NC(Cc1c(Sc2ccc([N+](=O)[O-])cc2)[nH]c2ccccc12)C(=O)O)(COCCC(=O)NC(Cc1c(Sc2ccc([N+](=O)[O-])cc2)[nH]c2ccccc12)C(=O)O)COCCC(=O)NC(Cc1c(Sc2ccc([N+](=O)[O-])cc2)[nH]c2ccccc12)C(=O)O)NC(Cc1c(Sc2ccc([N+](=O)[O-])cc2)[nH]c2ccccc12)C(=O)O (stereo not shown) = -1
• NCC(=O)NC(CCC(=O)NC(Cc1c(Sc2ccc(F)cc2)[nH]c2ccccc12)C(=O)O)(CCC(=O)NC(Cc1c(Sc2ccc(F)cc2)[nH]c2ccccc12)C(=O)O)CCC(=O)NC(Cc1c(Sc2ccc(F)cc2)[nH]c2ccccc12)C(=O)O (stereo not shown) = -1
• CCCCCCCCCCCC(=O)NCC(=O)NC(CCC(=O)NC(Cc1c(Sc2ccc([N+](=O)[O-])cc2)[nH]c2ccccc12)C(=O)O)(CCC(=O)NC(Cc1c(Sc2ccc([N+](=O)[O-])cc2)[nH]c2ccccc12)C(=O)O)CCC(=O)NC(Cc1c(Sc2ccc([N+](=O)[O-])cc2)[nH]c2ccccc12)C(=O)O (stereo not shown) = -1
• NCC(=O)NC(CCC(=O)NC(Cc1c(Sc2ccc([N+](=O)[O-])cc2)[nH]c2ccccc12)C(=O)O)(CCC(=O)NC(Cc1c(Sc2ccc([N+](=O)[O-])cc2)[nH]c2ccccc12)C(=O)O)CCC(=O)NC(Cc1c(Sc2ccc([N+](=O)[O-])cc2)[nH]c2ccccc12)C(=O)O (stereo not shown) = 1
• N#Cc1ccc(Sc2[nH]c3ccccc3c2CC(NC(=O)CCC(CCC(=O)NC(Cc2c(Sc3ccc(C#N)cc3)[nH]c3ccccc23)C(=O)O)(CCC(=O)NC(Cc2c(Sc3ccc(C#N)cc3)[nH]c3ccccc23)C(=O)O)NC(=O)CN)C(=O)O)cc1 (stereo not shown) = -1

We next turn to a different compound, shown below.
Can NCCOCCOCCC(=O)NCC(=O)NC(CCC(=O)NC(Cc1c(Sc2ccc([N+](=O)[O-])cc2)[nH]c2ccccc12)C(=O)O)(CCC(=O)NC(Cc1c(Sc2ccc([N+](=O)[O-])cc2)[nH]c2ccccc12)C(=O)O)CCC(=O)NC(Cc1c(Sc2ccc([N+](=O)[O-])cc2)[nH]c2ccccc12)C(=O)O (stereo not shown) be said to have pIC50 at or above 5? 1

---

- System: VSV-S (pseudotyped VSV carrying the S protein of Wuhan-Hu-1 SARS-CoV-2)
- test_protocol: microbe, parasite or virus in culture
- Assay type: cell-based
- experimental_conditions: read-out: IC50 (concentration at which virus infection is reduced by 50%), VSV-S in Vero E6 cells
pIC50: −log10 of the molar value.
Respond with Y for pIC50 values of 5 and above, N for values below.

The examples below pair each entry with its known result.
• NCC(=O)NC(CCC(=O)NC(Cc1c(Sc2ccc([N+](=O)[O-])cc2)[nH]c2ccccc12)C(=O)O)(CCC(=O)NC(Cc1c(Sc2ccc([N+](=O)[O-])cc2)[nH]c2ccccc12)C(=O)O)CCC(=O)NC(Cc1c(Sc2ccc([N+](=O)[O-])cc2)[nH]c2ccccc12)C(=O)O (centres unmarked) = Y
• O=C(CCC(CCC(=O)NC(Cc1c(Sc2ccc([N+](=O)[O-])cc2)[nH]c2ccccc12)C(=O)O)(CCC(=O)NC(Cc1c(Sc2ccc([N+](=O)[O-])cc2)[nH]c2ccccc12)C(=O)O)[N+](=O)[O-])NC(Cc1c(Sc2ccc([N+](=O)[O-])cc2)[nH]c2ccccc12)C(=O)O (centres unmarked) = N

Can CC(=O)c1ccc(Sc2[nH]c3ccccc3c2CC(NC(=O)CCC(CCC(=O)NC(Cc2c(Sc3ccc(C(C)=O)cc3)[nH]c3ccccc23)C(=O)O)(CCC(=O)NC(Cc2c(Sc3ccc(C(C)=O)cc3)[nH]c3ccccc23)C(=O)O)NC(=O)CN)C(=O)O)cc1 (centres unmarked) be said to have pIC50 at or above 5? Y

Would you kindly repeat that for O=C(CCOCC(COCCC(=O)NC(Cc1c(Sc2ccc([N+](=O)[O-])cc2)[nH]c2ccccc12)C(=O)O)(COCCC(=O)NC(Cc1c(Sc2ccc([N+](=O)[O-])cc2)[nH]c2ccccc12)C(=O)O)COCCC(=O)NC(Cc1c(Sc2ccc([N+](=O)[O-])cc2)[nH]c2ccccc12)C(=O)O)NC(Cc1c(Sc2ccc([N+](=O)[O-])cc2)[nH]c2ccccc12)C(=O)O (centres unmarked) ? N

Would you kindly repeat that for O=C(O)CCCCC(=O)NCC(=O)NC(CCC(=O)NC(Cc1c(Sc2ccc([N+](=O)[O-])cc2)[nH]c2ccccc12)C(=O)O)(CCC(=O)NC(Cc1c(Sc2ccc([N+](=O)[O-])cc2)[nH]c2ccccc12)C(=O)O)CCC(=O)NC(Cc1c(Sc2ccc([N+](=O)[O-])cc2)[nH]c2ccccc12)C(=O)O (centres unmarked) ? Y

---

- test_protocol: in vitro
- experimental_conditions: African green monkey
recorded_metric: CC50

* O=C(CCOCC(COCCC(=O)NC(Cc1c(Sc2ccc([N+](=O)[O-])cc2)[nH]c2ccccc12)C(=O)O)(COCCC(=O)NC(Cc1c(Sc2ccc([N+](=O)[O-])cc2)[nH]c2ccccc12)C(=O)O)COCCC(=O)NC(Cc1c(Sc2ccc([N+](=O)[O-])cc2)[nH]c2ccccc12)C(=O)O)NC(Cc1c(Sc2ccc([N+](=O)[O-])cc2)[nH]c2ccccc12)C(=O)O (centres unmarked) | > 100 µM

For the next question, use this molecule.
May I ask what CC50 has been recorded for NCC(=O)NC(CCC(=O)NC(Cc1c(Sc2ccc([N+](=O)[O-])cc2)[nH]c2ccccc12)C(=O)O)(CCC(=O)NC(Cc1c(Sc2ccc([N+](=O)[O-])cc2)[nH]c2ccccc12)C(=O)O)CCC(=O)NC(Cc1c(Sc2ccc([N+](=O)[O-])cc2)[nH]c2ccccc12)C(=O)O (centres unmarked) ? > 100 µM

---

- test_protocol: in vitro
- experimental_conditions: human
recorded_metric: CC50

- CCCCCCCCCCCC(=O)NCC(=O)NC(CCC(=O)NC(Cc1c(Sc2ccc([N+](=O)[O-])cc2)[nH]c2ccccc12)C(=O)O)(CCC(=O)NC(Cc1c(Sc2ccc([N+](=O)[O-])cc2)[nH]c2ccccc12)C(=O)O)CCC(=O)NC(Cc1c(Sc2ccc([N+](=O)[O-])cc2)[nH]c2ccccc12)C(=O)O (centres unmarked): > 100 µM

May I ask what CC50 has been recorded for CCCCCC(=O)NCC(=O)NC(CCC(=O)NC(Cc1c(Sc2ccc([N+](=O)[O-])cc2)[nH]c2ccccc12)C(=O)O)(CCC(=O)NC(Cc1c(Sc2ccc([N+](=O)[O-])cc2)[nH]c2ccccc12)C(=O)O)CCC(=O)NC(Cc1c(Sc2ccc([N+](=O)[O-])cc2)[nH]c2ccccc12)C(=O)O (centres unmarked) ? > 100 µM
